measured_on: T1, human GLP-1R (human), P43220
T1 chain: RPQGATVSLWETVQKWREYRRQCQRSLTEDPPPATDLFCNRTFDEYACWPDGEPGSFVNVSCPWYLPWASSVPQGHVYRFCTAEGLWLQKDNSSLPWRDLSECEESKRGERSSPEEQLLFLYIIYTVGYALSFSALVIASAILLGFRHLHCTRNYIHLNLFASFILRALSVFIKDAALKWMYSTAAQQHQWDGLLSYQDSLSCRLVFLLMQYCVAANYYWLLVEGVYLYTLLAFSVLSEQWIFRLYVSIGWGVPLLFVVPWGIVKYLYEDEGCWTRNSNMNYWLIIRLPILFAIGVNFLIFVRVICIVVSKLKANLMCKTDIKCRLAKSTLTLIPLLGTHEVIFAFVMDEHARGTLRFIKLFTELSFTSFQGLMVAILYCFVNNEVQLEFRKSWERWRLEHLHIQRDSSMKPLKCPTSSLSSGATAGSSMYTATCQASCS
Non-standard residues stand in square brackets, D forms with d. Groups on a side chain read outwards from the residue. Primed or numbered codes have the meaning given here. No end group written: not given here. *: point of attachment. Undecanoyl = CCCCCCCCCCC(=O)*; Lauroyl = CCCCCCCCCCCC(=O)*; Decanoyl = CCCCCCCCCC(=O)*; PEG2′ = not defined here; Aib = CC(C)(N)C(=O)O
parameter: Agonist activity (EC50, M)
Answer format: numeric, M implied, no suffix.

Agonist activity (EC50, M) for Y[Aib]EGTFISDYSK([PEG2′-Decanoyl])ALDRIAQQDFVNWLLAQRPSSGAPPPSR (ends and bridges not checked) [Compound 182] ?
4.8e-08

Thanks! And Y[Aib]EGTFISDYSK([PEG(2)-Lauroyl])ALDR[Aib]AQQDFVNWLLAQRPSSGAPPPSR (ends and bridges not checked) [Compound 198] ?
2.8e-08

Y[Aib]EGTFISDYSK([PEG2′-Undecanoyl])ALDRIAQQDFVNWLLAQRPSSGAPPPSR (ends and bridges not checked) [Compound 183] ?
3.3e-08
